- Procedure details: Induction of tRNA-5'TAMRA-antiterminator RNA (unknown origin) complex disruption using fluorescently-labeled AM at 100 uM by fluorescence anisotropy monitored complex disruption assay
Activity calls are given as the source filed them. No cut-off for these calls is given here.
Observed property: Activity

- Compound structure string: "CC(=O)c1ccc(NC(=O)OC[C@H]2OC(=O)N3CCc4c(-c5ccccc5)nnn4C[C@H]23)cc1"
  Assay result: "-28%"
- Compound structure string: "CC(=O)c1ccc(NC(=O)OC[C@@H]2OC(=O)N3CCc4c(-c5ccccc5)nnn4C[C@@H]23)cc1"
  Assay result: "-20%"
- Compound structure string: "O=C(Cc1ccccc1)OC[C@@H]1OC(=O)N2CCc3c(-c4ccccc4)nnn3C[C@@H]12"
  Assay result: "inactive"
- Compound structure string: "O=C(Cc1ccccc1)OC[C@H]1OC(=O)N2CCc3c(-c4ccccc4)nnn3C[C@H]12"
  Assay result: "inactive"
